biological target: CGRP receptor ectodomain complex (Homo sapiens (Human), UniProt O60894+Q16602); assay: Receptor kinetic profiling by surface plasmon resonance (Biacore T200); details: dissociation half-life, SPR, 25° C.
Sequence (Q16602 23-139): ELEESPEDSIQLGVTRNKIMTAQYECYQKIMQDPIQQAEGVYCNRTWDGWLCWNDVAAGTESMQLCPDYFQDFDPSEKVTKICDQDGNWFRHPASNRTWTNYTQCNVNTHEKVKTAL
Sequence (O60894 27-118): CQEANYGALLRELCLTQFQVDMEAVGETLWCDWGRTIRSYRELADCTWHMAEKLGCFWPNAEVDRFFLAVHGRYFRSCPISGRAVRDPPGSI
In this section we review reported CGRP t1/2 values for a set of compounds.

See these solved cases before continuing.
Cc1cc(C[C@@H](NC(=O)N2CCC(N3Cc4ccccc4NC3=O)CC2)C(=O)N[C@@H](CC2CCNCC2)C(=O)N2CCN(c3ccncc3)CC2)cc2cn[nH]c12 | 3 min
CCN1CCC(C[C@H](NC(=O)[C@@H](Cc2cc(C)c3[nH]ncc3c2)NC(=O)N2CCC(c3cc4ccccc4[nH]c3=O)CC2)C(=O)N2CCN(c3ccncc3)CC2)CC1 | 36 min
Cc1cc(C[C@@H](NC(=O)N2CCC(n3c(=O)[nH]c4ncccc43)CC2)C(=O)N[C@@H](CC2CCN(CCN(C)C)CC2)C(=O)N2CCN(c3ccncc3)CC2)cc2cn[nH]c12 | 101 min
O=C(N[C@@H](CC1CCNCC1)C(=O)N1CCN(c2ccncc2)CC1)[C@@H](Cc1cc(Br)c(O)c(Br)c1)NC(=O)N1CCC(N2Cc3ccccc3NC2=O)CC1 | 32 min

Entry NCCCC[C@H](NC(=O)[C@@H](Cc1cc(Br)c(O)c(Br)c1)NC(=O)N1CCC(N2Cc3ccccc3NC2=O)CC1)C(=O)N1CCN(c2ccncc2)CC1 ; CGRP t1/2 = 30 min

The compound identified as O=C(CN1C(=O)C2(CCCC2)NC[C@H]1c1cc(F)cc(F)c1)Nc1ccc2c(c1)C[C@@]1(C2)C(=O)Nc2ncccc21 [MK-3207, reference compound] registered its CGRP t1/2 at 27 min

Documented CGRP t1/2 of Cc1cc(C[C@@H](NC(=O)N2CCC(c3cc4ccccc4[nH]c3=O)CC2)C(=O)N[C@@H](CC2CCNCC2)C(=O)N2CCN(c3ccncc3)CC2)cc2cn[nH]c12 : 4 min

Briefly, CGRP t1/2 measured for O=C(N[C@@H](CC1CCNCC1)C(=O)N1CCN(c2ccncc2)CC1)[C@@H](Cc1cc(Br)c(O)c(Br)c1)NC(=O)N1CCC(c2cc3ccccc3[nH]c2=O)CC1 : 12 min

Data point: CCCCC(=O)N1CCC(C[C@H](NC(=O)[C@@H](Cc2cc(C)c3[nH]ncc3c2)NC(=O)N2CCC(c3cc4ccccc4[nH]c3=O)CC2)C(=O)N2CCN(c3ccncc3)CC2)CC1 ; CGRP t1/2 = 20 min

Looking up Cc1cc(C[C@@H](NC(=O)N2CCC3(CC2)OC(=O)Nc2ncccc23)C(=O)N[C@@H](CC2CCNCC2)C(=O)N2CCN(c3ccncc3)CC2)cc2cn[nH]c12 , I see its CGRP t1/2 listed as 65 min

---

assay: Cynomolgus monkey pharmacokinetic profiling (iv, sc); conditions: male, in vivo, sc, 0.5 mg/kg
Property name: bioavailability
Answer as a quantity: numeral, then unit.

Data point: Cc1cc(C[C@@H](NC(=O)N2CCC3(CC2)OC(=O)Nc2ncccc23)C(=O)N[C@@H](CC2CCNCC2)C(=O)N2CCN(c3ccncc3)CC2)cc2cn[nH]c12 [Example 11] ; bioavailability = 100%

---

experiment: Thermodynamic solubility profiling; format: physicochemical; conditions: aqueous buffer, thermodynamic from solid; PBS buffer pH 7.4, 24 h at rt; read-out: Thermodynamic solubility pH 7.4
Decision: solubility thermodynamic at 24 h >= 1000 µM yields true (1), all other cases yield false (0).

Cc1cc(C[C@@H](NC(=O)N2CCC(N3Cc4ccccc4NC3=O)CC2)C(=O)N[C@@H](CC2CCNCC2)C(=O)N2CCN(c3ccncc3)CC2)cc2cn[nH]c12 | true (1)
Cc1cc(C[C@@H](NC(=O)N2CCC3(CC2)OC(=O)Nc2ncccc23)C(=O)N[C@@H](CC2CCNCC2)C(=O)N2CCN(c3ccncc3)CC2)cc2cn[nH]c12 | true (1)
O=C(N[C@@H](CC1CCNCC1)C(=O)N1CCN(c2ccncc2)CC1)[C@@H](Cc1cc(Br)c(O)c(Br)c1)NC(=O)N1CCC(n2c(=O)[nH]c3ncccc32)CC1 | false (0)
Cc1cc(C[C@@H](NC(=O)N2CCC(c3cc4ccccc4[nH]c3=O)CC2)C(=O)N[C@@H](CC2CCNCC2)C(=O)N2CCN(c3ccncc3)CC2)cc2cn[nH]c12 | false (0)
Cc1cc(C[C@@H](NC(=O)N2CCC(n3c(=O)[nH]c4ncccc43)CC2)C(=O)N[C@@H](CC2CCNCC2)C(=O)N2CCN(c3ccncc3)CC2)cc2cn[nH]c12 | true (1)

Query: Decide: is the reported value of solubility thermodynamic at 24 h for O=C(N[C@@H](CC1CCNCC1)C(=O)N1CCN(c2ccncc2)CC1)[C@@H](Cc1cc(Br)c(O)c(Br)c1)NC(=O)N1CCC(c2cc3ccccc3[nH]c2=O)CC1 equal to or greater than 1000 µM?
Result: false (0)

Query: Tell me whether solubility thermodynamic at 24 h is at least 1000 µM here: Cc1cc(C[C@@H](NC(=O)N2CCC(n3c(=O)[nH]c4ncccc43)CC2)C(=O)N[C@@H](CC2CCN(CCN(C)C)CC2)C(=O)N2CCN(c3ccncc3)CC2)cc2cn[nH]c12
Result: true (1)

Query: Decide: solubility thermodynamic at 24 h of O=C1Nc2ncccc2C2(CCN(C(=O)N[C@H](Cc3cc(Br)c(O)c(Br)c3)C(=O)N[C@@H](CC3CCNCC3)C(=O)N3CCN(c4ccncc4)CC3)CC2)O1 >= 1000 µM?
Result: false (0)
